Hi there, I'd appreciate the recorded pIC50 for every entry that follows.
# measurement_target: Progesterone receptor (Homo sapiens, UniProt P06401)
# Sequence (P06401 whole entry): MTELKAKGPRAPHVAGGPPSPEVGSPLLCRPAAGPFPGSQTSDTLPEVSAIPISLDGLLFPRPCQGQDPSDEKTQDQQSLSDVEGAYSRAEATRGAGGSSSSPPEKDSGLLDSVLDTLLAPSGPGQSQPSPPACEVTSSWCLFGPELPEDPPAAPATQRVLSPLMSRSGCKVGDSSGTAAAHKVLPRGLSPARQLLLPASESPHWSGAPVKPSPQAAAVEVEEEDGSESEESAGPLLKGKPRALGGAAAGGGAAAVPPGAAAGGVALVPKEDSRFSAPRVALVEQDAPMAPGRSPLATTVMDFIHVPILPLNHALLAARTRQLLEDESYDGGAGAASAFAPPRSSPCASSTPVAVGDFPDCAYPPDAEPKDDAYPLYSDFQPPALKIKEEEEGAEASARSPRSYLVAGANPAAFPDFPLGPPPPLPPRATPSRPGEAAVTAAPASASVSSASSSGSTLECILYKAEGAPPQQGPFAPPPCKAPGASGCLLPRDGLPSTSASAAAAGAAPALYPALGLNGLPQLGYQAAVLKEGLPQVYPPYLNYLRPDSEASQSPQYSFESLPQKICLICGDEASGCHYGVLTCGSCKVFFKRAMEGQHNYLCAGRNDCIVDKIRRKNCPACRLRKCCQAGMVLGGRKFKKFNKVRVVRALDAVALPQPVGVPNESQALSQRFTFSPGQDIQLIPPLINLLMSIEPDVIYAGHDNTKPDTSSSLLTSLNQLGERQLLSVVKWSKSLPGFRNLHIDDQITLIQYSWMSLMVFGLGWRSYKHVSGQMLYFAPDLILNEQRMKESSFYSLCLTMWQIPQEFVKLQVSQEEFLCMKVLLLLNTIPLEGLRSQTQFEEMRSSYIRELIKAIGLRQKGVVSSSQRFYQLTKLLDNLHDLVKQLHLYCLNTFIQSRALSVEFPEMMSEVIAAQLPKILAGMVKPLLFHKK
// pIC50 here means minus log10 of the molar concentration (mol/L)

Input line: Name the reported pIC50 value associated with the compound COc1ccc(C)c(C(C)(C)CC(O)(Cn2ccc(=O)c3ccccc32)C(F)(F)F)c1 (centres undefined)
Output line: 6.28

Input line: Follow-up item: COc1ccc(F)cc1C(C)(C)CC(O)(CN1CCC(=O)c2ccccc21)C(F)(F)F (centres undefined)
Output line: 7.05

Input line: Lookup Cc1ccc(F)cc1C(C)(C)CC(O)(Cn1ccc(=O)c2ccccc21)C(F)(F)F (centres undefined)
Output line: 6.62

Input line: Could you do the same for CC(C)(CC(O)(Cn1ccc(=O)c2ccccc21)C(F)(F)F)c1ccc(F)cc1O (centres undefined) , please?
Output line: 6.47

----------
I'd appreciate it if you could supply Ratio IC50 values for the items below.
# Organism: Homo sapiens
# test_description: Ratio of IC50 for GR to PR

Input line: What value of measured Ratio IC50 is listed for COc1ccc(F)cc1C(C)(C)CC(O)(CN1C[C@@H](C)O[C@@H](C)C1)C(F)(F)F (stereo not given in full) ?
Output line: > 75

Input line: Also COc1ccc(F)cc1C(C)(C)CC(O)(CN1CCC(=O)c2ccccc21)C(F)(F)F (stereo not given) ?
Output line: < 50

Input line: Another molecule to look at: COc1ccc(F)cc1C(C)(C)CC(O)(CN1CCOc2ccccc21)C(F)(F)F (stereo not given)
Output line: < 50

Input line: Continue with COc1ccc(F)cc1C(C)(C)CC(O)(Cn1ccc(=O)c2ccccc21)C(F)(F)F (stereo not given)
Output line: < 50

Input line: What about COc1ccc(F)cc1C(C)(C)CC(O)(CN1C[C@@H](C)C(=O)[C@@H](C)C1)C(F)(F)F (stereo not given in full) ?
Output line: > 75
